assayed.system: Bromodomain-containing protein 4 (Homo sapiens, UniProt O60885)
assay.method.text: Inhibition of FAM-labeled ZBA248 binding to recombinant N-terminal His6-tagged BRD4 bromodomain 2 (333 to 460 residues) (unknown origin) expressed in Escherichia coli Rosetta2 DE3 after 30 mins by fluorescence polarization assay
measurement.label: pKi
pKi is defined as minus the log10 of a concentration measured in mol/L.

CNC(=O)c1ncc2c(n1)[nH]c1cc(-c3c(C)noc3C)c(OC)cc12 = 6.69

Then this molecule:
Which pKi is reported for this molecule? CCn1nc(C2CC2)cc1Nc1nc(C(=O)NC)nc2[nH]c3cc(-c4c(C)noc4C)c(OC)cc3c12
9.00

---

System: MOLM-13
assay.method.text: Cytotoxicity against human MOLM13 cells assessed as cell growth inhibition after 4 days by WST-8 assay
Format: functional, cell-based
assay.setup: MOLM-13, 96 h
measurement.label: pIC50
pIC50 is defined as minus the log10 of a concentration measured in mol/L.

Which pIC50 is reported for this molecule? Cc1sc2c(c1C)C(c1ccc(Cl)cc1)=N[C@@H](CC(=O)NCCCCNC(=O)COc1cccc3c1C(=O)N(C1CCC(=O)NC1=O)C3=O)c1nnc(C)n1-2 (some centres not stated)
6.18

Which pIC50 is reported for this molecule? CCn1nc(C2CC2)cc1Nc1nc(C(=O)NCCCc2cccc3c2CN(C2CCC(=O)NC2=O)C3=O)nc2[nH]c3cc(-c4c(C)noc4C)c(OC)cc3c12 (configuration not stated)
7.14

Which pIC50 is reported for this molecule? CCn1nc(C2CC2)cc1Nc1nc(C(=O)NCCCCCc2cccc3c2CN(C2CCC(=O)N(C)C2=O)C3=O)nc2[nH]c3cc(-c4c(C)noc4C)c(OC)cc3c12 (configuration not stated)
7.08

Which pIC50 is reported for this molecule? CCn1nc(C2CC2)cc1Nc1nc(C(=O)NCCCCCCCOc2cccc3c2C(=O)N(C2CCC(=O)NC2=O)C3=O)nc2[nH]c3cc(-c4c(C)noc4C)c(OC)cc3c12 (configuration not stated)
8.41

Which pIC50 is reported for this molecule? CCn1nc(C2CC2)cc1Nc1nc(C(=O)NCCOCCCc2cccc3c2CN(C2CCC(=O)NC2=O)C3=O)nc2[nH]c3cc(-c4c(C)noc4C)c(OC)cc3c12 (configuration not stated)
8.27

Which pIC50 is reported for this molecule? CCn1nc(C2CC2)cc1Nc1nc(C(=O)NCCCCNc2cccc3c2C(=O)N(C2CCC(=O)NC2=O)C3=O)nc2[nH]c3cc(-c4c(C)noc4C)c(OC)cc3c12 (configuration not stated)
8.30

Which pIC50 is reported for this molecule? CCn1nc(C2CC2)cc1Nc1nc(C(=O)NCCCCNC(=O)CNc2cccc3c2C(=O)N(C2CCC(=O)NC2=O)C3=O)nc2[nH]c3cc(-c4c(C)noc4C)c(OC)cc3c12 (configuration not stated)
7.70

Which pIC50 is reported for this molecule? CCn1nc(C2CC2)cc1Nc1nc(C(=O)NCCCCCCNc2cccc3c2C(=O)N(C2CCC(=O)NC2=O)C3=O)nc2[nH]c3cc(-c4c(C)noc4C)c(OC)cc3c12 (configuration not stated)
8.43

Which pIC50 is reported for this molecule? CCn1nc(C2CC2)cc1Nc1nc(C(=O)NCCNc2cccc3c2C(=O)N(C2CCC(=O)NC2=O)C3=O)nc2[nH]c3cc(-c4c(C)noc4C)c(OC)cc3c12 (configuration not stated)
7.16

Which pIC50 is reported for this molecule? CCn1nc(C2CC2)cc1Nc1nc(C(=O)NCCCCCNc2cccc3c2C(=O)N(C2CCC(=O)NC2=O)C3=O)nc2[nH]c3cc(-c4c(C)noc4C)c(OC)cc3c12 (configuration not stated)
8.68

Which pIC50 is reported for this molecule? CCn1nc(C2CC2)cc1Nc1nc(C(=O)NCCCCNC(=O)COc2cccc3c2C(=O)N(C2CCC(=O)NC2=O)C3=O)nc2[nH]c3cc(-c4c(C)noc4C)c(OC)cc3c12 (configuration not stated)
7.34

Which pIC50 is reported for this molecule? CCn1nc(C2CC2)cc1Nc1nc(C(=O)NCCOCCCc2cccc3c2C(=O)N(C2CCC(=O)NC2=O)C3=O)nc2[nH]c3cc(-c4c(C)noc4C)c(OC)cc3c12 (configuration not stated)
8.23
